# target entity: Alpha-1B adrenergic receptor (Homo sapiens) (UniProt P35368)
# Sequence (whole entry): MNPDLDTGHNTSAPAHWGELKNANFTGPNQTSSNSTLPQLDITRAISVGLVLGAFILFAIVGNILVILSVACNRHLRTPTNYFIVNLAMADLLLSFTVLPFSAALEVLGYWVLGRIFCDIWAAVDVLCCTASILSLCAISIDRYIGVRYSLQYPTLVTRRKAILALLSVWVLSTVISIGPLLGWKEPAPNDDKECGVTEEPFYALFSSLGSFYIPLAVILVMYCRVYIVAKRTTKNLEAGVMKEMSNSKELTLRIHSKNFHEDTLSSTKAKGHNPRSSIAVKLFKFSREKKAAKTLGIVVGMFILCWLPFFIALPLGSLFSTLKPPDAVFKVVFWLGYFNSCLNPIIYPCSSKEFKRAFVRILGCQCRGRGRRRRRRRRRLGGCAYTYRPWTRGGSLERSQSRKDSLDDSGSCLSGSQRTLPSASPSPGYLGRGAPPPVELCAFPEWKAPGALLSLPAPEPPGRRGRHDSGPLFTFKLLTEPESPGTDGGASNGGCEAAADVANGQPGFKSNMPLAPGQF
# measurement parameters: Compound concentration 10 µM; call rule not given here
Possible outcomes: active, inactive

- compound string: "COc1ccccc1CN[C@H]1C2CCN(CC2)[C@H]1C(c1ccccc1)c1ccccc1"
  label class: "inactive"
- compound string: "CCCCCCCCCCCCC/C=C/[C@@H](O)[C@@H](N)COP(=O)(O)O"
  label class: "inactive"
- compound string: "O=c1ccn([C@@H]2O[C@H](COP(=O)(O)OP(=O)(O)O)[C@@H](O)[C@H]2O)c(=O)[nH]1"
  label class: "inactive"
- compound string: "C[C@H](CO)Nc1nc(SCc2cccc(Cl)c2F)nc2[nH]c(=O)sc12"
  label class: "inactive"
- compound string: "NC(=O)[C@@H]1CCCN1C(=O)[C@H](Cc1c[nH]cn1)NC(=O)[C@@H]1CCC(=O)N1"
  label class: "inactive"
- compound string: "COc1ccc(CNC(=O)c2cc(-c3cncc(Cl)c3)cnc2-c2ccccn2)nc1OC"
  label class: "inactive"
- compound string: "CN(C)C(=O)N[C@H]1CC[C@H](CCN2CCN(c3cccc(Cl)c3Cl)CC2)CC1"
  label class: "active"
- compound string: "N#Cc1c(O)nc(SCc2cccc(F)c2F)nc1C1CC1"
  label class: "inactive"
- compound string: "C=CCN1C[C@H](C)N([C@H](c2ccc(C(=O)N(CC)CC)cc2)c2cccc(O)c2)C[C@H]1C"
  label class: "inactive"
- compound string: "CCN(CC)CCCCC1CCN(CC(=O)N2c3ccccc3C(=O)Nc3cccnc32)CC1"
  label class: "inactive"
- compound string: "Cc1ccccc1N1CCN(S(=O)(=O)C[C@]23CC[C@H](C[C@@H]2NC(=O)[C@@H](N)CCS(C)(=O)=O)C3(C)C)CC1"
  label class: "inactive"
- compound string: "Cc1nc(C(=O)N2CCC[C@H]2Cc2nnc(-c3ccccc3)o2)c(-c2ccccc2F)s1"
  label class: "inactive"
